- Assay System: T1, Soluble CTLA-4-Ig (extracellular domain of human CTLA-4 fused to the Fc portion of human IgG1) (human, UniProt P16410 36-161, FITC-conjugated in the FACS binding assays)
- T1 construct: extracellular domain; bought from R&D Systems; also called sCTLA-4-Ig; CTLA-4-Ig Fc; not shown: Fc portion of human IgG1
- T1 sequence (P16410 36-161): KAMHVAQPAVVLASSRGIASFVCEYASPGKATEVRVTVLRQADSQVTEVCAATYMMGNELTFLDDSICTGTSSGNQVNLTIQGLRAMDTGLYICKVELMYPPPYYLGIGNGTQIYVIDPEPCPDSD
- Assay Name: competitive FACS on transfected cells, FITC-sCTLA-4-Ig with biotin-sCD28-Ig; grade 0-2 of CTLA-4/CD28 ratio vs WT hB7-1
Observation Type: Binding Score
Please reply with the value in numeric form only.

Look up and state reported Binding Score for Round 2 CTLA4BP-5x2-3c (ligand) VIHVTREVKEVATLSCGHNVSVEELAQTRIHWQKEKKMVLTMMSGDMNIWPEYKNRTIFDITNNLSIVILALRPSDEGTYECVVLKYEKDAFKREHLAEVMLSVKADFPTPSISDFEIPTSNIRRIICSTSGGFPEPHLSWLENGEELNAINTTVSQDPETGLYTVSSKLDFNMTTNHSFMCLIKYGHLRVNQTFNWNTPKQEHFPDNLLPSWAITLISVNGIFVICCLTYCFAPRCRERRRNERLRRESVCPV
2

Look up and state reported Binding Score for Round 2 CTLA4BP-5x4-1f (ligand) VIHVTKEVKEVATLSCGHNVSVEELAQTRIHWQKEKKMVLTMMSGDMNIWPEYKNRTIFDITNNLSIVILALRPSDEGTYECVVLKYEKDAFKREHLAEVMLSVKADFPTPSISDFEIPTSNIRRIICSTSGGFPEPHLFWLENGEELNAINTTVSQDPETELYTVSSKLDFNMTTNHSFMCLIKYGHLRVNQTFNWNTPKQEHFPDNLLPSWAITLISVNGIFVICCLTYCFAPRCRERRRNERLRRESVCPV
2

Look up and state reported Binding Score for Round 2 CTLA4BP 5x3-e8 (ligand) VIHVTKEVKEVATLSCGHNVSVEELAQTRIYWQKEKKMVLTMMSGDMNIWPEYKNRTIFDITNNLSIVILALRPSDEGTYECVVLEYEKDAFKREHLAEVTLSVKADFPTPSISDFEIPTSNIRRIICSTSGGFPEPHLFWLENGEELNAINTTVSQDPETELYTVSSKLDFNMTANHSFVCLIKYGHLRVNQTFNWNTPKQEHFPDNLLPSWAITLISVNGIFVICCLTYCFAPGCRERRRNERLRRESVCPV
1
